B1: library; a variant is named by its letters at N, in order (parent)
chain: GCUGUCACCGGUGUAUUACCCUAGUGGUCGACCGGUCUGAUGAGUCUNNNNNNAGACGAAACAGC

- Variants of: B1
- EXPERIMENT DESCRIPTION: normalized RNA/DNA level without ligand (relative to sTRSVctl = 100) (log10 (% of sTRSVctl)); ligand: hypoxanthine (xanthine aptamer); higher = less ribozyme self-cleavage, higher mRNA level
- MEASUREMENT SETUP: HEK293T, reporter: mCherry (pCS4076), ligand present: no
For each entry below, report its normalized RNA/DNA level without ligand (log10) value.
Number only, no unit.

The reported normalized RNA/DNA level without ligand (log10) of the variant GCUGUCACCGGUGUAUUACCCUAGUGGUCGACCGGUCUGAUGAGUCUCGACAGAGACGAAACAGC was 1.68

The reported normalized RNA/DNA level without ligand (log10) of the variant GCUGUCACCGGUGUAUUACCCUAGUGGUCGACCGGUCUGAUGAGUCUUCCGGCAGACGAAACAGC was 1.85

The reported normalized RNA/DNA level without ligand (log10) of the variant GCUGUCACCGGUGUAUUACCCUAGUGGUCGACCGGUCUGAUGAGUCUUUGAAUAGACGAAACAGC was 1.8

The reported normalized RNA/DNA level without ligand (log10) of the variant GCUGUCACCGGUGUAUUACCCUAGUGGUCGACCGGUCUGAUGAGUCUCUUAUAAGACGAAACAGC was 1.79

The reported normalized RNA/DNA level without ligand (log10) of the variant GCUGUCACCGGUGUAUUACCCUAGUGGUCGACCGGUCUGAUGAGUCUGGAUAGAGACGAAACAGC was 1.39

The reported normalized RNA/DNA level without ligand (log10) of the variant GCUGUCACCGGUGUAUUACCCUAGUGGUCGACCGGUCUGAUGAGUCUCAGCUUAGACGAAACAGC was 1.86

The reported normalized RNA/DNA level without ligand (log10) of the variant GCUGUCACCGGUGUAUUACCCUAGUGGUCGACCGGUCUGAUGAGUCUUCCAUAAGACGAAACAGC was 1.88

The reported normalized RNA/DNA level without ligand (log10) of the variant GCUGUCACCGGUGUAUUACCCUAGUGGUCGACCGGUCUGAUGAGUCUUAGUCGAGACGAAACAGC was 1.74

The reported normalized RNA/DNA level without ligand (log10) of the variant GCUGUCACCGGUGUAUUACCCUAGUGGUCGACCGGUCUGAUGAGUCUCCACGUAGACGAAACAGC was 1.83

The reported normalized RNA/DNA level without ligand (log10) of the variant GCUGUCACCGGUGUAUUACCCUAGUGGUCGACCGGUCUGAUGAGUCUUUUUUCAGACGAAACAGC was 1.99

The reported normalized RNA/DNA level without ligand (log10) of the variant GCUGUCACCGGUGUAUUACCCUAGUGGUCGACCGGUCUGAUGAGUCUGGUAUUAGACGAAACAGC was 1.88

The reported normalized RNA/DNA level without ligand (log10) of the variant GCUGUCACCGGUGUAUUACCCUAGUGGUCGACCGGUCUGAUGAGUCUCCCUUGAGACGAAACAGC was 1.84

The reported normalized RNA/DNA level without ligand (log10) of the variant GCUGUCACCGGUGUAUUACCCUAGUGGUCGACCGGUCUGAUGAGUCUUGCAAUAGACGAAACAGC was 1.81

The reported normalized RNA/DNA level without ligand (log10) of the variant GCUGUCACCGGUGUAUUACCCUAGUGGUCGACCGGUCUGAUGAGUCUCCCCGAAGACGAAACAGC was 1.81

The reported normalized RNA/DNA level without ligand (log10) of the variant GCUGUCACCGGUGUAUUACCCUAGUGGUCGACCGGUCUGAUGAGUCUACUAGGAGACGAAACAGC was 1.42

The reported normalized RNA/DNA level without ligand (log10) of the variant GCUGUCACCGGUGUAUUACCCUAGUGGUCGACCGGUCUGAUGAGUCUACUCAGAGACGAAACAGC was 1.53

The reported normalized RNA/DNA level without ligand (log10) of the variant GCUGUCACCGGUGUAUUACCCUAGUGGUCGACCGGUCUGAUGAGUCUAACACGAGACGAAACAGC was 1.4

The reported normalized RNA/DNA level without ligand (log10) of the variant GCUGUCACCGGUGUAUUACCCUAGUGGUCGACCGGUCUGAUGAGUCUUACAAUAGACGAAACAGC was 1.82

The reported normalized RNA/DNA level without ligand (log10) of the variant GCUGUCACCGGUGUAUUACCCUAGUGGUCGACCGGUCUGAUGAGUCUUCCCCUAGACGAAACAGC was 1.9

The reported normalized RNA/DNA level without ligand (log10) of the variant GCUGUCACCGGUGUAUUACCCUAGUGGUCGACCGGUCUGAUGAGUCUUAGUCAAGACGAAACAGC was 1.85

The reported normalized RNA/DNA level without ligand (log10) of the variant GCUGUCACCGGUGUAUUACCCUAGUGGUCGACCGGUCUGAUGAGUCUCAUACCAGACGAAACAGC was 1.89

The reported normalized RNA/DNA level without ligand (log10) of the variant GCUGUCACCGGUGUAUUACCCUAGUGGUCGACCGGUCUGAUGAGUCUCCCUAGAGACGAAACAGC was 1.77

The reported normalized RNA/DNA level without ligand (log10) of the variant GCUGUCACCGGUGUAUUACCCUAGUGGUCGACCGGUCUGAUGAGUCUAACUGUAGACGAAACAGC was 1.72

The reported normalized RNA/DNA level without ligand (log10) of the variant GCUGUCACCGGUGUAUUACCCUAGUGGUCGACCGGUCUGAUGAGUCUUGGGCGAGACGAAACAGC was 1.8

The reported normalized RNA/DNA level without ligand (log10) of the variant GCUGUCACCGGUGUAUUACCCUAGUGGUCGACCGGUCUGAUGAGUCUUCUCUGAGACGAAACAGC was 1.3

The reported normalized RNA/DNA level without ligand (log10) of the variant GCUGUCACCGGUGUAUUACCCUAGUGGUCGACCGGUCUGAUGAGUCUGUUAAAAGACGAAACAGC was 1.8

The reported normalized RNA/DNA level without ligand (log10) of the variant GCUGUCACCGGUGUAUUACCCUAGUGGUCGACCGGUCUGAUGAGUCUGCGUCUAGACGAAACAGC was 1.77

The reported normalized RNA/DNA level without ligand (log10) of the variant GCUGUCACCGGUGUAUUACCCUAGUGGUCGACCGGUCUGAUGAGUCUAUUAGGAGACGAAACAGC was 1.31

The reported normalized RNA/DNA level without ligand (log10) of the variant GCUGUCACCGGUGUAUUACCCUAGUGGUCGACCGGUCUGAUGAGUCUAGUAUAAGACGAAACAGC was 1.77

The reported normalized RNA/DNA level without ligand (log10) of the variant GCUGUCACCGGUGUAUUACCCUAGUGGUCGACCGGUCUGAUGAGUCUCCUGAUAGACGAAACAGC was 1.82

The reported normalized RNA/DNA level without ligand (log10) of the variant GCUGUCACCGGUGUAUUACCCUAGUGGUCGACCGGUCUGAUGAGUCUAAGAUAAGACGAAACAGC was 1.63

The reported normalized RNA/DNA level without ligand (log10) of the variant GCUGUCACCGGUGUAUUACCCUAGUGGUCGACCGGUCUGAUGAGUCUUGUUAUAGACGAAACAGC was 1.82

The reported normalized RNA/DNA level without ligand (log10) of the variant GCUGUCACCGGUGUAUUACCCUAGUGGUCGACCGGUCUGAUGAGUCUACGCCGAGACGAAACAGC was 1.4

The reported normalized RNA/DNA level without ligand (log10) of the variant GCUGUCACCGGUGUAUUACCCUAGUGGUCGACCGGUCUGAUGAGUCUAGACACAGACGAAACAGC was 1.76

The reported normalized RNA/DNA level without ligand (log10) of the variant GCUGUCACCGGUGUAUUACCCUAGUGGUCGACCGGUCUGAUGAGUCUCGAGGUAGACGAAACAGC was 1.86

The reported normalized RNA/DNA level without ligand (log10) of the variant GCUGUCACCGGUGUAUUACCCUAGUGGUCGACCGGUCUGAUGAGUCUACUUGGAGACGAAACAGC was 1.38

The reported normalized RNA/DNA level without ligand (log10) of the variant GCUGUCACCGGUGUAUUACCCUAGUGGUCGACCGGUCUGAUGAGUCUGGCUUAAGACGAAACAGC was 1.88

The reported normalized RNA/DNA level without ligand (log10) of the variant GCUGUCACCGGUGUAUUACCCUAGUGGUCGACCGGUCUGAUGAGUCUCAUGUCAGACGAAACAGC was 1.92

The reported normalized RNA/DNA level without ligand (log10) of the variant GCUGUCACCGGUGUAUUACCCUAGUGGUCGACCGGUCUGAUGAGUCUAAGGCAAGACGAAACAGC was 1.64

The reported normalized RNA/DNA level without ligand (log10) of the variant GCUGUCACCGGUGUAUUACCCUAGUGGUCGACCGGUCUGAUGAGUCUCUGAAGAGACGAAACAGC was 1.59

The reported normalized RNA/DNA level without ligand (log10) of the variant GCUGUCACCGGUGUAUUACCCUAGUGGUCGACCGGUCUGAUGAGUCUUUAUGGAGACGAAACAGC was 1.67

The reported normalized RNA/DNA level without ligand (log10) of the variant GCUGUCACCGGUGUAUUACCCUAGUGGUCGACCGGUCUGAUGAGUCUCUGUAGAGACGAAACAGC was 1.65

The reported normalized RNA/DNA level without ligand (log10) of the variant GCUGUCACCGGUGUAUUACCCUAGUGGUCGACCGGUCUGAUGAGUCUCUGGUAAGACGAAACAGC was 1.77

The reported normalized RNA/DNA level without ligand (log10) of the variant GCUGUCACCGGUGUAUUACCCUAGUGGUCGACCGGUCUGAUGAGUCUAGUCGGAGACGAAACAGC was 1.48

The reported normalized RNA/DNA level without ligand (log10) of the variant GCUGUCACCGGUGUAUUACCCUAGUGGUCGACCGGUCUGAUGAGUCUCACUAAAGACGAAACAGC was 1.74
